Conditions: 363.15 K; 101.33 kPa; Liquid; Vibrating tube method
Entries annotated with measured mass density
# output: bare number, implied unit kg/m3

Consider the following illustrative entries.
molecule	unit-symbol	mass density
C[N+]1(CC#N)CCCC1.O=S(=O)([N-]S(=O)(=O)C(F)(F)F)C(F)(F)F	kg/m3	1479
CCCCCC[n+]1ccn(C)c1.FC(F)(F)C(F)(F)[P-](F)(F)(F)(C(F)(F)C(F)(F)F)C(F)(F)C(F)(F)F	kg/m3	1482.4
CCCCn1cc[n+](C)c1.O=S(=O)([O-])C(F)(F)F [1-butyl-3-methylimidazolium trifluoromethanesulfonate]	kg/m3	1246.9
CCn1cc[n+](C)c1.O=S(=O)([N-]S(=O)(=O)C(F)(F)F)C(F)(F)F	kg/m3	1454
CCOS(=O)(=O)[O-].CCn1cc[n+](C)c1 [1-ethyl-3-methylimidazolium ethyl sulfate]	kg/m3	1195.6

// moving on: another record for mass density
Return the recorded mass density value; entry: `CCCC[n+]1ccn(C)c1.O=S(=O)([N-]S(=O)(=O)C(F)(F)F)C(F)(F)F`
1374.3

---

Entries annotated with measured mass density
Conditions: 298.15 K; 101.33 kPa; Liquid; Vibrating tube method
# output: bare number, implied unit kg/m3

Consider the following illustrative entries.
compound	unit-symbol	mass density
Cn1cc[n+](C)c1.N#C[S-] [1,3-dimethylimidazolium thiocyanate]	kg/m3	1157.4
C[N+]1(CC#N)CCCC1.O=S(=O)([N-]S(=O)(=O)C(F)(F)F)C(F)(F)F	kg/m3	1537.8
CCCC[n+]1ccn(C)c1.O=S(=O)([N-]S(=O)(=O)C(F)(F)F)C(F)(F)F	kg/m3	1437.9
CCn1cc[n+](C)c1.O=S(=O)([N-]S(=O)(=O)C(F)(F)F)C(F)(F)F	kg/m3	1517.9
N#CC[n+]1ccccc1.O=S(=O)([N-]S(=O)(=O)C(F)(F)F)C(F)(F)F	kg/m3	1631.2

// moving on: another record for mass density
Return the recorded mass density value; entry: `CCCCCC[n+]1ccn(C)c1.FC(F)(F)C(F)(F)[P-](F)(F)(F)(C(F)(F)C(F)(F)F)C(F)(F)C(F)(F)F`
1551.8

---

Conditions: 353.15 K; 101.33 kPa; Liquid; Vibrating tube method
Entries annotated with measured mass density
# output: bare number, implied unit kg/m3

molecule	readout-number
CCCCn1cc[n+](C)c1.O=S(=O)([O-])C(F)(F)F [1-butyl-3-methylimidazolium trifluoromethanesulfonate]	1254.5
CCCCCC[n+]1ccn(C)c1.FC(F)(F)C(F)(F)[P-](F)(F)(F)(C(F)(F)C(F)(F)F)C(F)(F)C(F)(F)F	1493
Cn1cc[n+](C)c1.N#C[S-] [1,3-dimethylimidazolium thiocyanate]	1123.1
CCCCCCCCCCn1cc[n+](C)c1.O=S(=O)([N-]S(=O)(=O)C(F)(F)F)C(F)(F)F	1231.4
CCCCCCCCCCCCCC[P+](CCCCCC)(CCCCCC)CCCCCC.O=S(=O)([N-]S(=O)(=O)C(F)(F)F)C(F)(F)F	1024.4

Return the recorded mass density value; entry: `N#CC[n+]1ccccc1.O=S(=O)([N-]S(=O)(=O)C(F)(F)F)C(F)(F)F`
1577.7

Return the recorded mass density value; entry: `C[N+]1(CC#N)CCCC1.O=S(=O)([N-]S(=O)(=O)C(F)(F)F)C(F)(F)F`
1487.8

Return the recorded mass density value; entry: `CCCCCCCCn1cc[n+](C)c1.O=S(=O)([N-]S(=O)(=O)C(F)(F)F)C(F)(F)F`
1272.1

Return the recorded mass density value; entry: `CCCCCC[n+]1ccn(C)c1.O=S(=O)([N-]S(=O)(=O)C(F)(F)F)C(F)(F)F`
1320.9

Return the recorded mass density value; entry: `CCCC[n+]1ccn(C)c1.O=S(=O)([N-]S(=O)(=O)C(F)(F)F)C(F)(F)F`
1383.6

Return the recorded mass density value; entry: CCOS(=O)(=O)[O-].CCn1cc[n+](C)c1 [1-ethyl-3-methylimidazolium ethyl sulfate]
1202.2

Return the recorded mass density value; entry: `CCCC[N+]1(C)CCCC1.FC(F)(F)C(F)(F)[P-](F)(F)(F)(C(F)(F)C(F)(F)F)C(F)(F)C(F)(F)F`
1525.1

Return the recorded mass density value; entry: `CCn1cc[n+](C)c1.O=S(=O)([N-]S(=O)(=O)C(F)(F)F)C(F)(F)F`
1463.8

---

Settings: 293.15 K; 101.33 kPa; Liquid; Vibrating tube method
Entries annotated with measured mass density
# output: bare number, implied unit kg/m3

molecule	unit-symbol	readout-number
CCCCn1cc[n+](C)c1.O=S(=O)([O-])C(F)(F)F [1-butyl-3-methylimidazolium trifluoromethanesulfonate]	kg/m3	1301.3

Return the recorded mass density value; entry: `CCCC[N+]1(C)CCCC1.FC(F)(F)C(F)(F)[P-](F)(F)(F)(C(F)(F)C(F)(F)F)C(F)(F)C(F)(F)F`
1588.1

Return the recorded mass density value; entry: CCOS(=O)(=O)[O-].CCn1cc[n+](C)c1 [1-ethyl-3-methylimidazolium ethyl sulfate]
1242.3

Return the recorded mass density value; entry: `CCCCCC[n+]1ccn(C)c1.O=S(=O)([N-]S(=O)(=O)C(F)(F)F)C(F)(F)F`
1375.1

Return the recorded mass density value; entry: `CCCCCC[n+]1ccn(C)c1.FC(F)(F)C(F)(F)[P-](F)(F)(F)(C(F)(F)C(F)(F)F)C(F)(F)C(F)(F)F`
1557.1

Return the recorded mass density value; entry: `CCCCCCCCn1cc[n+](C)c1.O=S(=O)([N-]S(=O)(=O)C(F)(F)F)C(F)(F)F`
1324.5

Return the recorded mass density value; entry: Cn1cc[n+](C)c1.N#C[S-] [1,3-dimethylimidazolium thiocyanate]
1160.7

---

Details: 333.15 K; 101.33 kPa; Liquid; Vibrating tube method
Entries annotated with measured mass density
# output: bare number, implied unit kg/m3

compound	attribute-measured	unit-symbol	readout-number
CCCCCCCCCCn1cc[n+](C)c1.O=S(=O)([N-]S(=O)(=O)C(F)(F)F)C(F)(F)F	mass density	kg/m3	1248.3
C[N+]1(CC#N)CCCC1.O=S(=O)([N-]S(=O)(=O)C(F)(F)F)C(F)(F)F	mass density	kg/m3	1505.5
N#CC[n+]1ccccc1.O=S(=O)([N-]S(=O)(=O)C(F)(F)F)C(F)(F)F	mass density	kg/m3	1596.8
CCCCCC[n+]1ccn(C)c1.FC(F)(F)C(F)(F)[P-](F)(F)(F)(C(F)(F)C(F)(F)F)C(F)(F)C(F)(F)F	mass density	kg/m3	1514.3
Cn1cc[n+](C)c1.N#C[S-] [1,3-dimethylimidazolium thiocyanate]	mass density	kg/m3	1135.2

Return the recorded mass density value; entry: `CCCCCCCCn1cc[n+](C)c1.O=S(=O)([N-]S(=O)(=O)C(F)(F)F)C(F)(F)F`
1289.5

Return the recorded mass density value; entry: CCCCn1cc[n+](C)c1.O=S(=O)([O-])C(F)(F)F [1-butyl-3-methylimidazolium trifluoromethanesulfonate]
1269.9

Return the recorded mass density value; entry: `CCCC[N+]1(C)CCCC1.FC(F)(F)C(F)(F)[P-](F)(F)(F)(C(F)(F)C(F)(F)F)C(F)(F)C(F)(F)F`
1545.9

Return the recorded mass density value; entry: `CCCCCCCCCCCCCC[P+](CCCCCC)(CCCCCC)CCCCCC.O=S(=O)([N-]S(=O)(=O)C(F)(F)F)C(F)(F)F`
1038.6

Return the recorded mass density value; entry: CCOS(=O)(=O)[O-].CCn1cc[n+](C)c1 [1-ethyl-3-methylimidazolium ethyl sulfate]
1215.5

Return the recorded mass density value; entry: `CCCCCC[n+]1ccn(C)c1.O=S(=O)([N-]S(=O)(=O)C(F)(F)F)C(F)(F)F`
1338.8

---

Conditions: 323.15 K; 101.33 kPa; Liquid; Vibrating tube method
attribute-measured: mass density (kg/m3)
# output: bare number, implied unit kg/m3

compound	mass density / kg/m3
Cn1cc[n+](C)c1.N#C[S-] [1,3-dimethylimidazolium thiocyanate]	1141.4

Return the recorded mass density value; entry: `N#CC[n+]1ccccc1.O=S(=O)([N-]S(=O)(=O)C(F)(F)F)C(F)(F)F`
1606.4

---

Conditions: 343.15 K; 101.33 kPa; Liquid; Vibrating tube method
Numbers after ± are expanded uncertainties.
attribute-measured: mass density

compound	mass density
CCOS(=O)(=O)[O-].CCn1cc[n+](C)c1 [1-ethyl-3-methylimidazolium ethyl sulfate]	1208.8 ± 3.6 kg/m3

Return the recorded mass density value; entry: `CCCCCC[n+]1ccn(C)c1.FC(F)(F)C(F)(F)[P-](F)(F)(F)(C(F)(F)C(F)(F)F)C(F)(F)C(F)(F)F`
1503.6 ± 2.7 kg/m3

Return the recorded mass density value; entry: `C[N+]1(CC#N)CCCC1.O=S(=O)([N-]S(=O)(=O)C(F)(F)F)C(F)(F)F`
1496.7 ± 5.7 kg/m3

Return the recorded mass density value; entry: Cn1cc[n+](C)c1.N#C[S-] [1,3-dimethylimidazolium thiocyanate]
1129.1 ± 0.4 kg/m3
